Cited source: the supplement of paper PMC12317010

Assay: collision cross section in nitrogen (drift tube, single-field); higher = larger gas-phase ion size;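 note: chemical standards at 10 µM analysed by drift tube IMS-QTOF MS in about 3.95 torr nitrogen, mean of duplicate injections differing ≤1%, mass error below 10 ppm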
Conditions: ion type: [M+H]; ion source: APCI; ion mode: Positive
Label label 1 when collision cross section in nitrogen is at or above 200 Å²; otherwise label label 0.

[
  {
    "compound": "CC1(C)CC(N)CC(C)(C)N1 [2,2,6,6-Tetramethylpiperidin-4-amine]",
    "labelValue": "label 0"
  },
  {
    "compound": "COP(=S)(OC)Oc1ccc(Sc2ccc(OP(=S)(OC)OC)cc2)cc1 [Temephos]",
    "labelValue": "label 0"
  },
  {
    "compound": "Nc1ncnc2[nH]cnc12 [Adenine]",
    "labelValue": "label 0"
  },
  {
    "compound": "NCCCN(CCO)CCO [2,2'-[(3-Aminopropyl)imino]diethanol]",
    "labelValue": "label 0"
  },
  {
    "compound": "CC1=CP(=O)(c2ccccc2)CC1 (configuration not stated) [2,3-Dihydro-4-methyl-1-phenyl-1H-phosphole 1-oxide]",
    "labelValue": "label 0"
  },
  {
    "compound": "O=c1c(O)c(-c2ccc(O)cc2)oc2cc(O)cc(O)c12 [Kaempferol]",
    "labelValue": "label 0"
  },
  {
    "compound": "CCCCCCCCCCCCN1CCCCCC1=O [Laurocapram]",
    "labelValue": "label 0"
  },
  {
    "compound": "OCCN(CCO)CCN(CCO)CCO [2,2',2'',2'''-(1,2-Ethanediyldinitrilo)tetrakisethanol]",
    "labelValue": "label 0"
  },
  {
    "compound": "CCCCCCCCCCCC(=O)NCCCN(C)C [N-[3-(Dimethylamino)propyl]dodecanamide]",
    "labelValue": "label 0"
  },
  {
    "compound": "CCOC(=O)c1ccc([C@H]2CC[C@H](NC[C@H](O)COc3ccc(O)c(NS(C)(=O)=O)c3)CC2)cc1",
    "labelValue": "label 1"
  },
  {
    "compound": "c1cc(N(CC2CO2)CC2CO2)ccc1Cc1ccc(N(CC2CO2)CC2CO2)cc1 (configuration not stated) [4,4'-Methylenebis(N,N-diglycidylaniline)]",
    "labelValue": "label 1"
  },
  {
    "compound": "CC(C)Nc1ccc(NC(C)C)c2c1C(=O)c1ccccc1C2=O [1,4-Bis(N-isopropylamino)anthraquinone]",
    "labelValue": "label 0"
  },
  {
    "compound": "CC(=O)OCCN(CCOC(C)=O)c1ccc(N=Nc2ccc([N+](=O)[O-])cc2C#N)cc1 [Disperse Red 82]",
    "labelValue": "label 1"
  },
  {
    "compound": "CCON=C(CC)C1=C(O)CC(c2c(C)cc(C)cc2C)CC1=O (configuration not stated) [Tralkoxydim]",
    "labelValue": "label 0"
  },
  {
    "compound": "CC(C)(C)C(O)(CCc1ccc(Cl)cc1)Cn1cncn1 (configuration not stated) [Tebuconazole]",
    "labelValue": "label 0"
  },
  {
    "compound": "COc1ccc(OC)c(N=Nc2c(O)ccc3ccccc23)c1 [C.I. Solvent Red 80]",
    "labelValue": "label 0"
  },
  {
    "compound": "CCN(CCO)CCO [Ethyl diethanolamine]",
    "labelValue": "label 0"
  }
]

* * *

Assay: collision cross section in nitrogen (drift tube, single-field); higher = larger gas-phase ion size
Conditions: ion type: [M-H]; ion source: ESI; ion mode: Negative
Counter-ions that a name gives are not always drawn.
Parameter: collision cross section in nitrogen. Scope: all listed entries.

[
  {
    "compound": "CC(C)n1c(/C=C/[C@H](O)C[C@H](O)CC(=O)O)c(-c2ccc(F)cc2)c2ccccc21",
    "unitsOfMeasure": "Å²",
    "collision cross section in nitrogen": 200
  },
  {
    "compound": "Cc1c(C2(c3cc(Br)c(O)c(Br)c3C)c3ccccc3OS2(=O)=O)cc(Br)c(O)c1Br",
    "unitsOfMeasure": "Å²",
    "collision cross section in nitrogen": 217.4
  },
  {
    "compound": "N#Cc1c(-c2ccc(Cl)cc2)[nH]c(C(F)(F)F)c1Br",
    "unitsOfMeasure": "Å²",
    "collision cross section in nitrogen": 157.9
  },
  {
    "compound": "CC(C)(C)c1cc([N+](=O)[O-])cc([N+](=O)[O-])c1O",
    "unitsOfMeasure": "Å²",
    "collision cross section in nitrogen": 150.1
  },
  {
    "compound": "CC(=O)Nc1ccc(C(=O)CCl)cc1 [4'-(Chloroacetyl)acetanilide]",
    "unitsOfMeasure": "Å²",
    "collision cross section in nitrogen": 144.9
  },
  {
    "compound": "CC[C@H](C)C(=O)O[C@H]1C[C@H](O)C=C2C=C[C@H](C)[C@H](CC[C@@H](O)C[C@@H](O)CC(=O)O)[C@H]21 [Pravastatin sodium]",
    "unitsOfMeasure": "Å²",
    "collision cross section in nitrogen": 201.5
  },
  {
    "compound": "O=C(N[C@H]1CN2CCC1CC2)c1cc2ccoc2cn1 [(R)-N-(Quinuclidin-3-yl)furo(2,3-C)pyridine-5-carboxamide]",
    "unitsOfMeasure": "Å²",
    "collision cross section in nitrogen": 172.1
  },
  {
    "compound": "O=C1OC2(c3ccccc31)c1cc(Br)c(O)c(Br)c1Oc1c2cc(Br)c(O)c1Br",
    "unitsOfMeasure": "Å²",
    "collision cross section in nitrogen": 207.8
  },
  {
    "compound": "CCc1ccc(CCOc2ccc(CC3SC(=O)NC3=O)cc2)nc1 (stereo not given) [Pioglitazone hydrochloride]",
    "unitsOfMeasure": "Å²",
    "collision cross section in nitrogen": 176.4
  },
  {
    "compound": "Nc1ccc(N=Nc2ccccc2)c(N)c1",
    "unitsOfMeasure": "Å²",
    "collision cross section in nitrogen": 149.6
  },
  {
    "compound": "CCCCCc1ccc(O)cc1",
    "unitsOfMeasure": "Å²",
    "collision cross section in nitrogen": 146.9
  },
  {
    "compound": "CCN(Cc1cccc(S(=O)(=O)O)c1)c1ccc(C(=C2C=CC(=[N+](CC)Cc3cccc(S(=O)(=O)O)c3)C=C2)c2ccc(O)cc2S(=O)(=O)[O-])cc1",
    "unitsOfMeasure": "Å²",
    "collision cross section in nitrogen": 260.3
  },
  {
    "compound": "Nc1c2c(nc3ccccc13)CCCC2",
    "unitsOfMeasure": "Å²",
    "collision cross section in nitrogen": 145.4
  },
  {
    "compound": "O=C(NO)c1ccccc1O [Salicylhydroxamic acid]",
    "unitsOfMeasure": "Å²",
    "collision cross section in nitrogen": 124.5
  },
  {
    "compound": "CCN(CC)c1ccc(C(=O)c2ccccc2C(=O)O)c(O)c1 [2-[4-(Diethylamino)-2-hydroxybenzoyl]benzoic acid]",
    "unitsOfMeasure": "Å²",
    "collision cross section in nitrogen": 179.8
  },
  {
    "compound": "O=C(NS(=O)(=O)/C=C/c1ccccc1)c1ccc(F)cc1Cl",
    "unitsOfMeasure": "Å²",
    "collision cross section in nitrogen": 177.6
  },
  {
    "compound": "O=C(NS(=O)(=O)/C=C/c1cccs1)c1ccc(F)cc1Br",
    "unitsOfMeasure": "Å²",
    "collision cross section in nitrogen": 178
  },
  {
    "compound": "COc1ccc(OC)c(N=Nc2c(O)ccc3ccccc23)c1",
    "unitsOfMeasure": "Å²",
    "collision cross section in nitrogen": 177.5
  },
  {
    "compound": "Cc1cc(O)cc(C)c1Cl",
    "unitsOfMeasure": "Å²",
    "collision cross section in nitrogen": 131.7
  },
  {
    "compound": "NNC(=O)CCCCC(=O)NN [Hexanedihydrazide]",
    "unitsOfMeasure": "Å²",
    "collision cross section in nitrogen": 138.4
  },
  {
    "compound": "CCC(C)OC(=O)c1ccc(O)cc1 (stereo not given)",
    "unitsOfMeasure": "Å²",
    "collision cross section in nitrogen": 148.4
  },
  {
    "compound": "Nc1cc([N+](=O)[O-])ccc1C(=O)O",
    "unitsOfMeasure": "Å²",
    "collision cross section in nitrogen": 133.5
  },
  {
    "compound": "CCCCC[C@H](O)CC(=O)CCc1ccc(O)c(OC)c1",
    "unitsOfMeasure": "Å²",
    "collision cross section in nitrogen": 169.5
  },
  {
    "compound": "Sc1nc2ccccc2s1 [Sodium 2-mercaptobenzothiolate]",
    "unitsOfMeasure": "Å²",
    "collision cross section in nitrogen": 127.7
  },
  {
    "compound": "N[C@@H](Cc1cc(I)c(Oc2ccc(O)c(I)c2)c(I)c1)C(=O)O",
    "unitsOfMeasure": "Å²",
    "collision cross section in nitrogen": 198.1
  },
  {
    "compound": "CCCCCCCCCCCCCCCCCC(=O)O",
    "unitsOfMeasure": "Å²",
    "collision cross section in nitrogen": 177.2
  },
  {
    "compound": "O=C1NS(=O)(=O)c2ccccc21",
    "unitsOfMeasure": "Å²",
    "collision cross section in nitrogen": 131.1
  },
  {
    "compound": "N[C@@H](Cc1ccc(O)c(O)c1)C(=O)O",
    "unitsOfMeasure": "Å²",
    "collision cross section in nitrogen": 141.6
  },
  {
    "compound": "Nc1cc([N+](=O)[O-])cc(Cl)c1O",
    "unitsOfMeasure": "Å²",
    "collision cross section in nitrogen": 130.1
  },
  {
    "compound": "O=S1(=O)OCC2C(CO1)C1(Cl)C(Cl)=C(Cl)C2(Cl)C1(Cl)Cl (stereo not given) [Endosulfan sulfate]",
    "unitsOfMeasure": "Å²",
    "collision cross section in nitrogen": 173.3
  },
  {
    "compound": "O=C(O)C1CCC(C(=O)O)CC1 (stereo not given)",
    "unitsOfMeasure": "Å²",
    "collision cross section in nitrogen": 136.1
  },
  {
    "compound": "CCNc1nc(NC(C)C(C)C)nc(SC)n1 (stereo not given)",
    "unitsOfMeasure": "Å²",
    "collision cross section in nitrogen": 166.9
  },
  {
    "compound": "Cc1c(N(C)CS(=O)(=O)O)c(=O)n(-c2ccccc2)n1C [Dipyrone monohydrate]",
    "unitsOfMeasure": "Å²",
    "collision cross section in nitrogen": 173.9
  },
  {
    "compound": "c1ccc(Nc2cccc3ccccc23)cc1",
    "unitsOfMeasure": "Å²",
    "collision cross section in nitrogen": 152.1
  },
  {
    "compound": "COc1ccccc1Oc1c(NS(=O)(=O)c2ccc(C(C)(C)C)cc2)nc(-c2ncccn2)nc1OCCO [Bosentan hydrate]",
    "unitsOfMeasure": "Å²",
    "collision cross section in nitrogen": 232.9
  }
]
